# target system: Huntingtin (Homo sapiens)
# assay text: mutant huntingtin-calmodulin interaction inhibitors – biochemical, AlphaScreen, primary screen (AID 1671202);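 also: 0% = both proteins with DMSO and 100% = one protein alone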
# condition description: AlphaScreen His-mHTT/GST-CaM binding, luminescence; at 15 µM, stronger effect = higher value
The campaign covered roughly 190,000 compounds. About 6,900 (3.6%) were called active. The full list was thinned out, with actives kept by preference.
reported endpoint: inhibition

                                chem_smiles              target_system  reported_endpoint    value_measured
0  O=C1CC[C@H](O)CCN1[C@H](CSc1ccc(Br)cc1)Cc1ccccc1  Huntingtin (Homo sapiens)         inhibition  24.2% (inactive)
1  CCN(CC)C(=O)C1CCN(c2nc3ccc(-c4ccc(OC)cc4)nc3s2)CC1  Huntingtin (Homo sapiens)         inhibition    66.8% (active)
2  COc1cccc2cc(-c3cc(=O)oc4cc5c(cc34)CCCC5)oc12  Huntingtin (Homo sapiens)         inhibition  -2.8% (inactive)

Consider the molecule `N#C/C(=C\c1cccs1)c1nc(-c2ccc3c(c2)OCO3)cs1` and give its measured inhibition.
-4.4% (inactive)

Consider the molecule `COc1cccc(CNC(=O)CC2CCN(S(=O)(=O)c3ccc(Cl)s3)CC2)c1` and give its measured inhibition.
-9.77% (inactive)

====

# target system: Huntingtin (Homo sapiens) (UniProt P42858)
# Sequence (P42858 whole entry, looked up, stated change not applied): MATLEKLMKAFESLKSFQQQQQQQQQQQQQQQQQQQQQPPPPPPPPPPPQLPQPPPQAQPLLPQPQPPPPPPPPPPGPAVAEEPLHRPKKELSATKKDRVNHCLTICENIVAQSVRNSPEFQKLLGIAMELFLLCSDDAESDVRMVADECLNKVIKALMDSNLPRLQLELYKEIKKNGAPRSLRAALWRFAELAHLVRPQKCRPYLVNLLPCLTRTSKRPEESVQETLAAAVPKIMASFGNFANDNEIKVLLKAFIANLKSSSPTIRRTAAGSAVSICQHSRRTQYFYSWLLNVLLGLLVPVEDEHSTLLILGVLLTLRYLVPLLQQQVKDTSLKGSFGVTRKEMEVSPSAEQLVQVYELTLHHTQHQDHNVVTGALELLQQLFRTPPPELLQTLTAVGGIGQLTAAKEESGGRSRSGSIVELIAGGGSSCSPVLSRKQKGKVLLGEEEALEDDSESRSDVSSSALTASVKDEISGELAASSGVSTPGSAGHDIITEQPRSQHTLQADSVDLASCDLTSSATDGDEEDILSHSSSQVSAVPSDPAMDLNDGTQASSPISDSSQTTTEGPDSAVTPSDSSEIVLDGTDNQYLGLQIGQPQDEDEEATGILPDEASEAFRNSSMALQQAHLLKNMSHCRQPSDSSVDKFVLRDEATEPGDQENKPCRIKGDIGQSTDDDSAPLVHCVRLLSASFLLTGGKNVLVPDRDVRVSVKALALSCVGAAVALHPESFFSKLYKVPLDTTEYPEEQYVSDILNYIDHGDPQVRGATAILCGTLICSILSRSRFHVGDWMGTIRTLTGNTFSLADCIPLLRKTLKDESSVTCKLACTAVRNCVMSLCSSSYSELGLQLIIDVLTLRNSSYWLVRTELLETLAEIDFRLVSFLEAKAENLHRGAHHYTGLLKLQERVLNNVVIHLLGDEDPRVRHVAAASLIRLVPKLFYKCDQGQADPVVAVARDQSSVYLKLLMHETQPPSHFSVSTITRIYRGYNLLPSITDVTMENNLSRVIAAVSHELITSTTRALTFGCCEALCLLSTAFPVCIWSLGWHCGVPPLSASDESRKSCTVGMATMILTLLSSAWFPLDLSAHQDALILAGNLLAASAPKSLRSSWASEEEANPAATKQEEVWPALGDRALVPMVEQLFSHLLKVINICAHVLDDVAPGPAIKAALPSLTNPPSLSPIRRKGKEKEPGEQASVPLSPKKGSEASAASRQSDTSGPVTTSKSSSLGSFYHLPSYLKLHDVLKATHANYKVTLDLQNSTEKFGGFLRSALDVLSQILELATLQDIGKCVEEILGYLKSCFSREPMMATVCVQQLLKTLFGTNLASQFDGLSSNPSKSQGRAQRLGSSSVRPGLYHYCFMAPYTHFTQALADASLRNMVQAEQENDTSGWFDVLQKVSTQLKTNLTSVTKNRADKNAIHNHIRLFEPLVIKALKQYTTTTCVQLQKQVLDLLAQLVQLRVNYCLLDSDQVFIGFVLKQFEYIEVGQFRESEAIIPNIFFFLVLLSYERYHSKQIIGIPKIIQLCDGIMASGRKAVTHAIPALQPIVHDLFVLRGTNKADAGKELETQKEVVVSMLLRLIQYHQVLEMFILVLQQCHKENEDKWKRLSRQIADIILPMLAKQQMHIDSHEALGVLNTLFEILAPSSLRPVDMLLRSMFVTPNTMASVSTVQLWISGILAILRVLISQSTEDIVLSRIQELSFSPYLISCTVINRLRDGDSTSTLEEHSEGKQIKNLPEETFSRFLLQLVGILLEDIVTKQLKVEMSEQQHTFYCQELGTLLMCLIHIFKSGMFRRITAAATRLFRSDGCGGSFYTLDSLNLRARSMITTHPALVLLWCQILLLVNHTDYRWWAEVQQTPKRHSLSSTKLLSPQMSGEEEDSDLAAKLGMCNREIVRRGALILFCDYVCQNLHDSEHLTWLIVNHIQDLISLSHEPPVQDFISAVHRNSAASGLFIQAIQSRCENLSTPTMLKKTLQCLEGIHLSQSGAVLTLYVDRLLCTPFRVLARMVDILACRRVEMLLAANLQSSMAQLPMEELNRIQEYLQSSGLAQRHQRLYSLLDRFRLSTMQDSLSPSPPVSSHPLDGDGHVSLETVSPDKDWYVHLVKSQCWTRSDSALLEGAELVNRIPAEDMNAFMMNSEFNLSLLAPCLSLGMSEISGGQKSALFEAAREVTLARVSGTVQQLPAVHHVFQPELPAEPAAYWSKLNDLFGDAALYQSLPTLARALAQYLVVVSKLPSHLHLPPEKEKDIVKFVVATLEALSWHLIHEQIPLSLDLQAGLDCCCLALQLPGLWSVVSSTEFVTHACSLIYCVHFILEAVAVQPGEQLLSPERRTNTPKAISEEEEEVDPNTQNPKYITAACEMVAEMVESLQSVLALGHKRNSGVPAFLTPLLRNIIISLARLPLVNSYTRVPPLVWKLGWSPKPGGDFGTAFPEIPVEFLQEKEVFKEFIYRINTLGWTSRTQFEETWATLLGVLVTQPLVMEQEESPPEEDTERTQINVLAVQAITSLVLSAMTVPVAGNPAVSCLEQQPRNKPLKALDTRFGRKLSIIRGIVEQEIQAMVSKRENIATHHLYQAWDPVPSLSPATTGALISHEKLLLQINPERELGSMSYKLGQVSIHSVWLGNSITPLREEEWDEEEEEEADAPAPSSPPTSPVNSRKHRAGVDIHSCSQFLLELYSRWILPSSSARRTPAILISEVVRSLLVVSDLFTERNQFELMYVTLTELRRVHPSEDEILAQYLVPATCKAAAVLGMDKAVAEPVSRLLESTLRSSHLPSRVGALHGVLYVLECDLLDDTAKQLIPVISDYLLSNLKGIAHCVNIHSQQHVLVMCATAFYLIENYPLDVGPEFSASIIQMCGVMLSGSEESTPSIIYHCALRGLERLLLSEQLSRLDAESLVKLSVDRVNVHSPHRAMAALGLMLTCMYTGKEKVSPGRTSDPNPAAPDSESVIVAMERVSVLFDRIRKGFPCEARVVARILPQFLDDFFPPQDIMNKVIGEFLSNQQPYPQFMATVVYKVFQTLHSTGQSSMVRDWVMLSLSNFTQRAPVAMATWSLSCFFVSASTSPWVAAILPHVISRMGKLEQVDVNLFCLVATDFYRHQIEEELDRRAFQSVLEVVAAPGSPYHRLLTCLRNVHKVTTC
# assay text: mutant huntingtin-calmodulin interaction inhibitors – biochemical, AlphaScreen, primary screen (AID 1671202);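 also: 0% = both proteins with DMSO and 100% = one protein alone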
# condition description: AlphaScreen His-mHTT/GST-CaM binding, luminescence; at 15 µM, stronger effect = higher value
In all, about 190,000 compounds went through this assay and about 6,900 (3.6%) were called active. The full list was thinned out, with actives kept by preference.
reported endpoint: inhibition (%)
The answer is to be given in %; state only the numeric part.

Reference set (8 entries):
>>> print(df.to_string())
                                   compound  reported_endpoint  value_measured
0  Cc1cc(OC(=O)C=Cc2ccccc2)c([N+](=O)[O-])c(=O)[nH]1         inhibition             7.1
1  Cc1ccc(C(=O)N2CCCC(COc3ccc(C(=O)N4CCOCC4)cc3)C2)cc1 (centres undefined)         inhibition            5.35
2  CCOc1cccc2c1OC(c1cccc(OC)c1OC)N1N=C(c3ccc(C)o3)CC21 (centres undefined)         inhibition              67
3  CCOC(=O)c1sc(NC(=O)CN2C(=O)c3ccccc3C2=O)c(SC#N)c1C         inhibition             0.3
4  O=C(NCc1ccncc1)C1CC(=O)N(Cc2ccccc2F)C1 (centres undefined)         inhibition             3.4
5  CCC(C)NC(=O)c1ccc2c(c1)nc1n2CCCC1 (centres undefined)         inhibition           -4.18
6     Cc1ccc(NC(=O)CN2CCN(c3ccccn3)CC2)cc1F         inhibition               2
7       COc1ccc(OCc2noc(-c3cccc(F)c3)n2)cc1         inhibition            -9.7

Consider the compound `O=C1C=CC(=NOC(=O)/C=C/c2ccccc2)C=C1` and give its measured inhibition.
100

Consider the compound `O=C(Nc1nnc(Cc2cccs2)o1)c1ccc(Cl)cc1Cl` and give its measured inhibition.
6

Consider the compound `O=C(CSc1nnc(NC(=O)c2ccc(Cl)c(Cl)c2)s1)NCc1ccco1` and give its measured inhibition.
-5.3

Consider the compound `CCCCS(=O)(=O)N1CC=C(c2cn(CC)c3ncccc23)CC1` and give its measured inhibition.
8.9

Consider the compound CCOc1cccc2c1OC(c1ccc(OC)c(OC)c1)N1N=C(c3ccco3)CC21 (centres undefined) and give its measured inhibition.
45

Consider the compound Cc1nc2c(c(NCC3CCCO3)n1)CCC2 (centres undefined) and give its measured inhibition.
-7.6
